Source listed as patent US6451835B1.

System: Tefranychus urticae Koch
Test: Mite adulticide test (MI)
Type: in vivo
Conditions: 1000 ppm spray to run off on cowpea leaves; adult mites added 1 day after treatment, read five days later
Protocol: Stock solutions of each of the compounds were prepared at 1000 ppm by dissolving 0.08 gram of each compound to be tested in 8 mL of acetone and adding 72 mL of distilled water plus 3 drops of ethoxylated sorbitan monolaurate, a wetting agent. […] All the tests discussed below, which involved treatment with compounds of this invention, were always repeated with controls to permit a comparison upon which the percent control was calculated. […]
Result Type: Percent Control MI (%)
Answers are plain numbers, in %.

Worked cases, answers included:
FCCC1(c2ccccc2)C=NNC1 (stereo not shown)
0
FCCn1cc(-c2cccc(Br)c2)cn1
100
FCCn1cc(-c2ccc(C(F)(F)F)cc2)cn1
0
FCCn1cc(-c2ccc(OC(F)(F)F)cc2)cn1
0
FCCn1cc(-c2ccc(Cl)cc2)cn1
100

Return reported Percent Control MI values for all items listed beneath this line.
1. FCCn1cc(-c2ccc(Cl)c(Cl)c2)cn1
2. FCCn1cc(-c2cccc(C(F)(F)F)c2)cn1

1: 100; 2: 0

---

Exercise: state measured Percent Control TB for each of the molecules provided.
System: Helicoverpa virescens larva
Assay: Tobacco budworm test (TB)
Format: in vivo
Conditions: 0.2 mL of 1000 ppm stock solution on diet cell surface; second instar larva; after 14 days; corrected by Abbott's formula
Give bare numbers, in %.

FCCn1cc(-c2cccc(Br)c2)cn1 [Compound 4]
7
FCCn1cc(-c2ccc(Cl)c(Cl)c2)cn1 [Compound 5]
0
FCCn1cc(-c2ccc(C(F)(F)F)cc2)cn1 [Compound 3]
100

Return reported Percent Control TB values for all items listed beneath this line.
1. FCCn1cc(-c2cccc(C(F)(F)F)c2)cn1 [Compound 6]
2. FCCn1cc(-c2ccc(OC(F)(F)F)cc2)cn1 [Compound 7]
3. FCCn1cc(-c2ccc(Cl)cc2)cn1 [Compound 2]

1. 0
2. 0
3. 40

Report Percent Control TB, nothing else, for this molecule: FCCC1(c2ccccc2)C=NNC1 (stereo not shown) [Compound 1, 4-(2-fluoroethyl)-4-phenyl-1H-pyrazole]
20

---

Tested on: root knot nematode (Meloidogmne incognita)
Experiment: Nematode test (NE)
Type: in vivo
Conditions: soil drench, soil concentration of 50 ppm; tomato seedling roots evaluated for galls nineteen days after planting
Exercise: state measured Percent Control NE for each of the compounds provided.
Numbers only, in %.

FCCC1(c2ccccc2)C=NNC1 (stereo not shown)
50
FCCn1cc(-c2cccc(Br)c2)cn1
100
FCCn1cc(-c2ccc(Cl)c(Cl)c2)cn1
60
FCCn1cc(-c2ccc(OC(F)(F)F)cc2)cn1
100
FCCn1cc(-c2cccc(C(F)(F)F)c2)cn1
100

Return reported Percent Control NE values for all items listed beneath this line.
1. FCCn1cc(-c2ccc(Cl)cc2)cn1
2. FCCn1cc(-c2ccc(C(F)(F)F)cc2)cn1

[100, 0]
